Data credit: paper PMC11938010

tested on: Pseudomonas aeruginosa PA14; test: In vitro antibacterial activity (growth inhibition, OD600), P. aeruginosa; format: cell-based; conditions: PA14, 50 μM compound, Table 1 and main text, read-out: PA14 inh. at 50 μM
Reported values of inhibition at 50 µM for individual entries

- COMPOUND: "O=C(Nc1cc(N2CCNCC2)cc(C(F)(F)F)c1)c1cc(-c2cc(Cl)ccc2O)[nH]n1 [Compound 11A]"
  inhibition at 50 µM: "< 10%"
- COMPOUND: "O=C(Nc1ccc(N2CCNCC2)c(C(F)(F)F)c1)c1cc(-c2cc(Cl)ccc2O)[nH]n1 [Compound 12A]"
  inhibition at 50 µM: "< 10%"

Item under review: NCc1cc(NC(=O)c2cc(-c3cc(Cl)ccc3O)[nH]n2)cc(C(F)(F)F)c1 . Reported inhibition at 50 µM?
< 10%

Would you mind telling me what inhibition at 50 µM value was observed for CC(C)(C)OC(=O)N1CCN=C1NCc1cccc(NC(=O)c2cc(-c3cc(Cl)ccc3O)[nH]n2)c1 ?
≥ 45%

Look at this compound and give its reported inhibition at 50 µM. O=C(Nc1cc(N2CCN(C3=NCCN3)CC2)cc(C(F)(F)F)c1)c1cc(-c2cc(Cl)ccc2O)[nH]n1 [Compound 11C]
< 10%

====

system: Pseudomonas aeruginosa PA14; assay: In vitro antibacterial activity (growth inhibition, OD600), P. aeruginosa; format: cell-based; conditions: PA14, 50 μM compound, Table 1 and main text, read-out: PA14 inh. at 50 μM
ASSAY_READOUT: inhibition at 50 µM (%)
Note: unit % is implicit; provide only the numeric part.

As a guide, the following entries are already answered.
- COMPOUND_STRUCTURE: "CC(C)(C)OC(=O)N1CCN=C1NCc1cc(NC(=O)c2cc(-c3cc(Cl)ccc3O)[nH]n2)cc(C(F)(F)F)c1"
  ASSAY_READOUT: "inhibition at 50 µM"
  QUANTITY_UNIT: "%"
  ENDPOINT_VALUE: 21
- COMPOUND_STRUCTURE: "N=C(N)N1CCN(c2ccc(NC(=O)c3cc(-c4cc(Cl)ccc4O)[nH]n3)cc2)CC1"
  ASSAY_READOUT: "inhibition at 50 µM"
  QUANTITY_UNIT: "%"
  ENDPOINT_VALUE: 55

Which inhibition at 50 µM value is on record for N=C(N)NCc1cc(NC(=O)c2cc(-c3cc(Cl)ccc3O)[nH]n2)cc(C(F)(F)F)c1 ?
50

====

Known 7h9 media Sol. of a selection of compounds
assay: Solubility in 7H9 medium; format: physicochemical; settings: M. tuberculosis growth medium (7H9)

Solved cases (5 shown):
- COMPOUND: "O=C(Nc1cccc(F)c1)c1cc(-c2cc(Cl)ccc2O)[nH]n1"
  ENDPOINT_VALUE: "< 8 µM"
- COMPOUND: "CC(C)(C)OC(=O)NCc1ccc(NC(=O)c2cc(-c3cc(Cl)ccc3O)[nH]n2)cc1"
  ENDPOINT_VALUE: "< 8 µM"
- COMPOUND: "CC(C)(C)OC(=O)N1CCN(c2cc(NC(=O)c3cc(-c4cc(Cl)ccc4O)[nH]n3)cc(C(F)(F)F)c2)CC1 [Compound 11B]"
  ENDPOINT_VALUE: "< 8 µM"
- COMPOUND: "O=C(Nc1cccc(C(F)(F)F)c1)c1cc(-c2cc(Cl)ccc2O)[nH]n1"
  ENDPOINT_VALUE: "< 8 µM"
- COMPOUND: "O=C(Nc1cccc(N2CCNCC2)c1)c1cc(-c2cc(Cl)ccc2O)[nH]n1"
  ENDPOINT_VALUE: "64 µM"

Moving on to another compound below.
What value of 7h9 media Sol. has been recorded for this entry: CC(C)(C)OC(=O)N1CCN(c2ccc(NC(=O)c3cc(-c4cc(Cl)ccc4O)[nH]n3)cc2C(F)(F)F)CC1 [Compound 12B]
< 8 µM

====

experiment: in vitro; settings: human, HepG2 CC50, 48 h, MTT
ASSAY_READOUT: CC50

Bench note: what CC50 did N=C(N)N1CCN(c2cccc(NC(=O)c3cc(-c4cc(Cl)ccc4O)[nH]n3)c2)CC1 show?
> 50 µM

Could you share which CC50 value was measured for O=C(Nc1cc(N2CCN(C3=NCCN3)CC2)cc(C(F)(F)F)c1)c1cc(-c2cc(Cl)ccc2O)[nH]n1 [Compound 11C] ?
> 50 µM

Which CC50 value belongs to N=C(N)N1CCN(C(=O)c2cc(-c3cc(Cl)ccc3O)[nH]n2)CC1 [Compound 14G] ?
> 50 µM

====

tested on: Staphylococcus aureus ssp. Aureus; test: In vitro antibacterial activity (MIC), S. aureus; type: cell-based; details: Staphylococcus aureus; Table 1 and main text; read-out: Sa MIC95
ASSAY_READOUT: MIC

Reference set, count: 2
- COMPOUND: "CC(C)(C)OC(=O)N1CCN(c2cc(NC(=O)c3cc(-c4cc(Cl)ccc4O)[nH]n3)ccc2C(F)(F)F)CC1 [Compound 13B]"
  TARGET_OR_SYSTEM: "Staphylococcus aureus ssp. Aureus"
  ENDPOINT_VALUE: "> 50 µM"
- COMPOUND: "CC(C)(C)OC(=O)N1CCN(Cc2ccc(NC(=O)c3cc(-c4cc(Cl)ccc4O)[nH]n3)cc2)CC1"
  TARGET_OR_SYSTEM: "Staphylococcus aureus ssp. Aureus"
  ENDPOINT_VALUE: "> 50 µM"

--- query ---
Short answer please: MIC, Staphylococcus aureus ssp. Aureus, entry O=C(Nc1ccc(N2CCNCC2)cc1)c1cc(-c2cc(Cl)ccc2O)[nH]n1
> 50 µM

====

system: Escherichia coli ∆tolC; assay: microbe, parasite or virus in culture; assay type: cell-based; settings: Escherichia coli, read-out: Ec∆tolC inh. at 50 µM (%)
ASSAY_READOUT: inhibition at 50 µM (%)
Number in %, nothing else.

- COMPOUND: "O=C(c1cc(-c2cc(Cl)ccc2O)[nH]n1)N1CCOCC1"
  inhibition at 50 µM [%]: 23

Test system Escherichia coli ∆tolC; read-out inhibition at 50 µM; what value for O=C(c1cc(-c2cc(Cl)ccc2O)[nH]n1)N1CCNCC1 [Compound 14A] ?
18

====

Each entry below carries its reported 7h9 media Sol..
experiment: Solubility in 7H9 medium; format: physicochemical; conditions: M. tuberculosis growth medium (7H9)
Please give a number only; it is taken to be in µM.

- COMPOUND_STRUCTURE: "O=C(Nc1cccc([N+](=O)[O-])c1)c1cc(-c2cc(Cl)ccc2O)[nH]n1"
  ASSAY_READOUT: "7h9 media Sol."
  ENDPOINT_VALUE: 32

Which 7h9 media Sol. reading was recorded for the molecule O=C(Nc1ccc(N2CCNCC2)cc1)c1cc(-c2cc(Cl)ccc2O)[nH]n1 ?
16

Name the reported 7h9 media Sol. value associated with the molecule NCc1ccc(NC(=O)c2cc(-c3cc(Cl)ccc3O)[nH]n2)cc1
16

====

assay: in vitro; settings: human, HepG2 CC50, 48 h, MTT
ASSAY_READOUT: CC50

- MOLECULE: "CC(C)(C)OC(=O)NCc1cccc(NC(=O)c2cc(-c3cc(Cl)ccc3O)[nH]n2)c1 [Compound 7B]"
  CC50: "> 50 µM"
- MOLECULE: "CC(C)(C)OC(=O)N1CCN(c2ccc(NC(=O)c3cc(-c4cc(Cl)ccc4O)[nH]n3)cc2C(F)(F)F)CC1 [Compound 12B]"
  CC50: "> 50 µM"

From here, focus on the item given below.
CC50 lookup needed for N=C(N)NCc1cccc(NC(=O)c2cc(-c3cc(Cl)ccc3O)[nH]n2)c1 [Compound 7G] , thanks.
> 50 µM

====

system: Escherichia coli ∆tolC; test: microbe, parasite or virus in culture; assay type: cell-based; conditions: Escherichia coli, read-out: Ec∆tolC inh. at 50 µM (%)
ASSAY_READOUT: inhibition at 50 µM

Could you tell me which inhibition at 50 µM is on file for CC(C)(C)OC(=O)N1CCN(c2ccc(NC(=O)c3cc(-c4cc(Cl)ccc4O)[nH]n3)cc2C(F)(F)F)CC1 [Compound 12B] ?
< 10%

What inhibition at 50 µM value was documented for this compound, CC(C)(C)OC(=O)N1CCN(c2ccc(NC(=O)c3cc(-c4cc(Cl)ccc4O)[nH]n3)cc2)CC1 ?
< 10%

What does the record list as inhibition at 50 µM for CC(C)(C)OC(=O)N1CCN(c2cc(NC(=O)c3cc(-c4cc(Cl)ccc4O)[nH]n3)ccc2C(F)(F)F)CC1 [Compound 13B] ?
< 10%
